Listing: EC50 of selected compounds
- Tested on: Respiratory Syncytial Virus
- test: In vitro screening for activity against Respiratory Syncytial Virus (MTT tetrazolium colorimetric assay, HeLa cells)
- Type: cell-based
- reported.conditions: human respiratory syncytial virus, 168 h; protection against RSV cytopathology in HeLa cells, 7 days after infection; pEC50 = −log of EC50 in molar units
The answer is to be given in nM; state only the numeric part.

Worked cases, EC50 given:
INSERT INTO measurements (compound, unit_tag, observed_measurement) VALUES
  ('Cc1ccc(O)c(Cn2c(NC3CCN(C)CC3)nc3ccc(CNc4cc(Cl)cc(Cl)c4)cc32)n1', 'nM', 2),
  ('Cc1cccc(NCc2cc(C)c3nc(NC4CCN(CCO)CC4)n(Cc4nc(C)ccc4O)c3c2)c1', 'nM', 3.16),
  ('Cc1cc(C)cc(NCc2ccc3nc(NCCCN4CCN(C)CC4)n(Cc4nc(C)ccc4O)c3c2)c1', 'nM', 3.98),
  ('Cc1ccc(O)c(Cn2c(NC3CCN(CCN)CC3)nc3ccc(C=Cc4ccccc4)cc32)n1.Cl [Compound 146, hydrochloride salt]', 'nM', 1.26);

In: Output EC50 of "Cc1cc(C)cc(NCc2ccc3nc(NCCCN4CCCCC4)n(Cc4nc(C)ccc4O)c3c2)c1"
Out: 1.58

In: Complete the entry with EC50 for "Cc1cccc(SCc2ccc3nc(NC4CCN(C)CC4)n(Cc4nc(C)ccc4O)c3c2)c1"
Out: 251

In: Write down EC50 measured for item "Cc1cccc(C(=O)Nc2ccc3c(c2)nc(NC2CCN(C)CC2)n3Cc2nc(C)ccc2O)c1"
Out: 126

In: State its EC50: Cc1cc(C)cc(NCc2ccc3nc(NCC(O)CO)n(Cc4nc(C)ccc4O)c3c2)c1 (stereo not shown)
Out: 31.6

In: // Input: "Cc1cccc(CNc2ccc3nc(NC4CCN(C)CC4)n(Cc4nc(C)ccc4O)c3c2)c1" . Output its EC50 only.
Out: 15.8
